Quick reference: T/C of the listed items.
- System: CD2F1 mice, L1210 leukemia ip, survival T/C
- Protocol notes: NCI In Vivo Anticancer Drug Screen. Data for tumor model L1210 Leukemia (intraperitoneal) in CD2F1 (CDF1) mice
- Condition set: endpoint: mean survival time; dose: 100.0 mg/kg/injection; schedule: Q01DX001 (ip); vehicle: saline; higher = longer survival
Toxic doses and inconclusive results are not listed.

Input c1ccc(CNCCCNCc2ccccn2)nc1 . Output T/C: 100 % of control

Reported T/C for CN=[N+]([O-])C1(OC(C)=O)CCCC1 was 117 % of control

compound COc1cc(Br)c(CC2c3cc(OC)c(OC)cc3CCN2C)cc1OC (stereo not given) , T/C observed: 101 % of control

The compound identified as Cc1nc(C)c2c(n1)Oc1ccc3ccccc3c1C2 registered its T/C at 97 % of control

get_value(item= C/C(Cl)=C\CSc1ccccc1 , readout=T/C) returns 100 % of control

For CC1CC(O)C(N)C(O)C1 (stereo not given) the compound record lists T/C as 103 % of control

For this compound ( NCC(=O)Nc1ccc(Cl)cc1C(=O)c1ccc[nH]1 ), measured T/C is 89 % of control

For Cc1ccc(-c2oc3ccccc3c(=O)c2O)cc1 the compound record lists T/C as 92 % of control

get_value(item= O=C1OC(=O)C2CCCC1C2 , readout=T/C) returns 105 % of control

Lab note: measured T/C of O=C1[O][Hg][c]2cc([N+](=O)[O-])cc3cccc1c23.O=C1[O][Hg][c]2cccc3cc([N+](=O)[O-])cc1c23 was 94 % of control

For this compound ( O=C(O)/C=C/CC(=O)O ), measured T/C is 92 % of control

NC(=O)CCC(NC(=O)c1cnc2ccccc2n1)C(=O)O (stereo not given) yielded T/C of 97 % of control

----------
- System: CD2F1 mice, L1210 leukemia ip, survival T/C
- Protocol notes: NCI In Vivo Anticancer Drug Screen. Data for tumor model L1210 Leukemia (intraperitoneal) in CD2F1 (CDF1) mice
- Condition set: endpoint: mean survival time; dose: 200.0 mg/kg/injection; schedule: Q01DX009 (ip); vehicle: saline with Tween-80; higher = longer survival
Toxic doses and inconclusive results are not listed.
Attribute measured: T/C

Please review the following examples before continuing.
Compound	T/C
Brc1ccccc1C=C1c2ccccc2-c2ccccc21	102 % of control
COc1ccccc1NC(=S)NCCO	103 % of control
CCOC(=O)CC(O)c1ccccc1 (stereo unspecified)	98 % of control
O=C1c2ccccc2C(=O)N1Cc1ccccc1	100 % of control

Form: item O=[N+]([O-])c1ccc2c(c1)COCO2 ; test system CD2F1 mice, L1210 leukemia ip, survival T/C; T/C: 97 % of control

Value sought: T/C, system CD2F1 mice, L1210 leukemia ip, survival T/C, item CCCCn1c(=O)cc(C(=O)O)c2ccccc21 . Result: 97 % of control

----------
T/C values by entry
- System: CD2F1 mice, L1210 leukemia ip, survival T/C
- Protocol notes: NCI In Vivo Anticancer Drug Screen. Data for tumor model L1210 Leukemia (intraperitoneal) in CD2F1 (CDF1) mice
- Condition set: endpoint: mean survival time; dose: 400.0 mg/kg/injection; schedule: Q01DX009 (ip); vehicle: saline with Tween-80; higher = longer survival
Toxic doses and inconclusive results are not listed.

Molecule	Reported value
CC1(CCOCc2ccccc2)NC(=O)NC1=O (stereo not drawn)	98 % of control
CCOC(=O)NC(CCl)C(=O)OC (stereo not drawn)	98 % of control
CC1(C(=O)O)CCCC2(C)C3=C(CCCC3)CCC12 (stereo not drawn)	102 % of control
CC(=O)CC1CC2(CCC1=O)OCCO2 (stereo not drawn)	100 % of control

// next entry
Reported T/C ( Cc1ccc(C(=O)CC#N)c(C)c1 ) = 90 % of control

The measurements presented in this section are drawn from PubChem BioAssay AID256.
